Each record here notes measured pIC50.
Test system: OCI-LY10
protocol summary: CTG Cell Viability Assay - OCI-LY10
Format: cell-based, human
measurement parameters: Homo sapiens, OCI-Ly10, 96 h, OCI-LY10, 4 days; read-out: CTG Cell Viability Assay - OCI-LY10: Average external-IC50
pIC50: −log10 of the molar value.

molecule | pIC50
Cc1ccc(-c2nn([C@H]3CC[C@H](CN4CCC5(CC4)CN(CCCc4cccc6c4n(C)c(=O)n6C4CCC(=O)NC4=O)C5)CC3)cc2NC(=O)c2cnn3cccnc23)nc1 (some centres unmarked) | < 6.00
Cn1c(=O)n(C2CCC(=O)NC2=O)c2cccc(C#CCCCNC[C@H]3CC[C@H](n4cc(NC(=O)c5cnn6ccc(N7C[C@H]8C[C@@H]7CO8)nc56)c(C(F)F)n4)CC3)c21 (some centres unmarked) | < 6.00
C=C(C)c1nn([C@H]2CC[C@H](CN(C)C3CCN(Cc4cccc5c4n(C)c(=O)n5C4CCC(=O)NC4=O)CC3)CC2)cc1NC(=O)c1cnn2ccc(NCC3CC3)nc12 (some centres unmarked) | < 6.00
CN(C[C@H]1CN(CCCNc2cccc3c2C(=O)N(C2CCC(=O)NC2=O)C3=O)CCO1)C[C@H]1CC[C@H](n2cc(NC(=O)c3cnn4ccc(N5C[C@H]6C[C@@H]5CO6)nc34)c(C(F)F)n2)CC1 (some centres unmarked) | > 7.30
CN(CCCCOCCCCc1cccc2c1n(C)c(=O)n2C1CCC(=O)NC1=O)C[C@H]1CC[C@H](n2cc(NC(=O)c3coc(-c4ccnc(NCC5CC5)c4)n3)c(C(F)F)n2)CC1 (some centres unmarked) | > 7.30
Cc1nc2cccc(OCCCOC3CCN(C[C@H]4CC[C@H](n5cc(NC(=O)c6cnn7ccc(N8CCOCC8)nc67)c(C(F)F)n5)CC4)CC3)c2c(=O)n1C1CCC(=O)NC1=O (some centres unmarked) | < 6.00
Cc1ccc(-c2nn([C@H]3CC[C@H](C(=O)N4CCC5(CC4)CN(CCCc4cccc6c4n(C)c(=O)n6C4CCC(=O)NC4=O)C5)CC3)cc2NC(=O)c2cnn3cccnc23)nc1 (some centres unmarked) | < 6.00
Cc1ccc(-n2nc(C3CCN(CCCCCOCCCc4cccc5c4n(C)c(=O)n5C4CCC(=O)NC4=O)CC3)cc2NC(=O)c2cnn3cccnc23)nc1 (centres unmarked) | < 6.00
CN(CC(CCCOCCCc1cccc2c1n(C)c(=O)n2C1CCC(=O)NC1=O)C(=O)O)C[C@H]1CC[C@H](n2cc(NC(=O)c3coc(-c4ccnc(NCC5CC5)c4)n3)c(C(F)F)n2)CC1 (some centres unmarked) | 7.00 to 7.30
Cn1c(=O)n(C2CCC(=O)NC2=O)c2ccc(CCCOC3CN(C[C@H]4CC[C@H](n5cc(NC(=O)c6coc(-c7ccnc(NCC8CC8)c7)n6)c(C(F)F)n5)CC4)C3)cc21 (some centres unmarked) | < 6.00
O=C1CCC(N2C(=O)c3cccc(OCCCOC4CCN(C[C@H]5CC[C@H](n6cc(NC(=O)c7cnn8ccc(N[C@@H]9CCCC[C@@H]9O)nc78)c(C(F)F)n6)CC5)CC4)c3C2=O)C(=O)N1 (some centres unmarked) | < 6.00
CC[C@H]1C(COc2ncc(C#C[C@H]3CC[C@H](CN4CCC(OCCCc5cccc6c5c5cccnc5n6C5CCC(=O)NC5=O)CC4)CC3)c3cc(C(N)=O)c(OC)cc23)NC(=O)[C@H]1F (some centres unmarked) | < 6.00
C[C@@H](CCNc1cccc2c1C(=O)N(C1CCC(=O)NC1=O)C2=O)OC1CCN(C[C@H]2CC[C@H](n3cc(NC(=O)c4cnn5ccc(N6C[C@H]7C[C@@H]6CO7)nc45)c(C(F)F)n3)CC2)CC1 (some centres unmarked) | > 7.30
O=C1CCC(N2Cc3c(NCCOCC4CCN(C[C@H]5CC[C@H](n6cc(NC(=O)c7cnn8ccc(N9C[C@H]%10C[C@@H]9CO%10)nc78)c(C(F)F)n6)CC5)CC4)cccc3C2=O)C(=O)N1 (some centres unmarked) | < 6.00
O=C1CCC(N2C[C@@H](c3ccc(C#CCCOC4CCN(C[C@H]5CC[C@H](n6cc(NC(=O)C7CNN8C=CC(N9CCOCC9)=NC78)c(C(F)F)n6)CC5)CC4)cc3)OC2=O)C(=O)N1 (some centres unmarked) | < 6.00
Cn1c(=O)n(C2CCC(=O)NC2=O)c2cccc(CCCOCCCN3CCC(n4cc(NC(=O)c5cnn6ccc(N7CCNCC7)nc56)c(C(F)F)n4)CC3)c21 (centres unmarked) | < 6.00
O=C1CCC(N2C(=O)c3cccc(NCCCOCCCS(=O)(=O)NC(=O)[C@H]4CC[C@H](n5cc(NC(=O)c6cnn7ccc(N8C[C@H]9CC8CO9)nc67)c(C(F)F)n5)CC4)c3C2=O)C(=O)N1 (some centres unmarked) | < 6.00
O=C1CCC(n2c(=O)oc3c(CCCOC4CCN(C[C@H]5CC[C@H](n6cc(NC(=O)c7cnn8ccc(N9CCNCC9)nc78)c(C(F)F)n6)CC5)CC4)cccc32)C(=O)N1 (some centres unmarked) | 6.00 to 6.30
Cn1c(=O)n(C2CCC(=O)NC2=O)c2cccc(CCCOC3CCN(C[C@H]4CC[C@H](n5cc(NC(=O)c6cnn7ccc(N[C@@H]8CCCC[C@H]8O)nc67)c(C(F)F)n5)CC4)CC3)c21 (some centres unmarked) | < 6.00
Cn1c(=O)n(C2CCC(=O)NC2=O)c2ccc(CCCOC3CCN(C[C@H]4CC[C@H](n5cc(NC(=O)c6coc(-c7ccnc(NCC8CC8)c7)n6)c(C(F)F)n5)CC4)CC3)cc21 (some centres unmarked) | < 6.00
